Molecular target: Procathepsin L (Homo sapiens)
Sequence (P07711 whole entry): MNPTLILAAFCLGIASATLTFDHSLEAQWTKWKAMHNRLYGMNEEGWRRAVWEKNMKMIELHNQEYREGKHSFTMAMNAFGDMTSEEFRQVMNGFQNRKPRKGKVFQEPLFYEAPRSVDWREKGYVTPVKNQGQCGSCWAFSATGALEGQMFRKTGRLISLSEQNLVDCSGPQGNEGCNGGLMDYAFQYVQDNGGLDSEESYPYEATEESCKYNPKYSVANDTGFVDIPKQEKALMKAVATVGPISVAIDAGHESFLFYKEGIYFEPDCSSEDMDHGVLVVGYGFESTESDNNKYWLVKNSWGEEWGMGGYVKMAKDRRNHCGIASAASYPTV
Measured Metric: pIC50
Units for pIC50: none; it is -log10 of a concentration expressed in mol/L.

query: Provide the reported pIC50 (system: Procathepsin L (Homo sapiens)) for N#Cc1ccc2c(c1)C(=O)N[C@H](C(=O)NC1(C#N)CC1)Cc1ccc(c(Cl)c1)OC/C=C/CO2
result: 8.16

Data origin: ChEMBL document CHEMBL3886572
